Catalogue of viability at 28.5 h, 10 µM values
measurement description: in vitro
condition set: human, hela cells, % viability
Answer format reminder: number followed by unit.

Please review the following examples before continuing.
>>> observed("Cc1n[nH]c(C)c1CC(=O)N1CCCC(c2cc3ccccc3cn2)C1 (centres unmarked) [CBK285018]")
"103%"
>>> observed("Cc1nc(SCC(=O)NCC2CCCOC2)oc1C (centres unmarked) [CBK282195]")
"94.6%"
>>> observed("COc1c(C)cc(-c2ncnc(C)c2C)cc1C [CBK306884]")
"67.6%"
>>> observed("O=C(NCCCN1CCCC1)Nc1ccccc1[N+](=O)[O-] [CBK267959]")
"97%"
>>> observed("COc1ccc(-c2nnc3c4ccccc4c(C)nn23)cc1S(=O)(=O)N1CCCCC1 [CBK266640]")
"110%"

// query # query: viability at 28.5 h, 10 µM of entry COc1ccc([C@@H]2CN(C(=O)c3ccccc3)[C@H]3CCN(Cc4ccc(F)cc4)C[C@@H]23)cc1 [CBK285581]
// result 109%

// query Item: Cc1ccc(C(CC(=O)N2CCN(Cc3ccccc3)CC2)c2ccccc2)c(O)c1C (centres unmarked) [CBK262214]
// result 100%

// query Item: CCOC(=O)CCc1nc2ccccc2nc1O [CBK264526]
// result 106%

// query Item: Cc1cc(C)cc(NC(=O)CSc2ncccn2)c1 [CBK287577]
// result 97.8%

// query Item: O=C(O)Cn1c(=O)[nH]c2c(-c3ccccc3)c[nH]c2c1=O [CBK287218]
// result 87.2%

// query Item: N=C1NC(=O)/C(=C/c2cccc(OCCOc3ccc(C4CCCCC4)cc3)c2)S1 [CBK263956]
// result 87.6%

// query Item: O=C(O)CCSc1nnc(-c2cccnc2)n1-c1ccccc1 [CBK268734]
// result 102%

// query Item: CCOC(=O)c1c(NC(=O)CN2CC(C)OC(C)C2)sc2c1CCCC2 (centres unmarked) [CBK265216]
// result 103%

// query Item: CN(C)Cc1nc2c([nH]1)c(=O)n(C)c(=O)n2C [CBK140662]
// result 99.8%

// query Item: CCOc1cc(C2Nc3ccccc3NC3=C2C(=O)C(C(=O)OC)C(C)C3)ccc1OC(C)C (centres unmarked) [CBK268456]
// result 111%

// query Item: Cc1nc(C2CCN(C(=O)c3cscn3)CC2)c2sccn12 [CBK285240]
// result 107%

// query Item: c1ccc([C@@H]2CN(Cc3cccnc3)C[C@H]2c2cc[nH]n2)cc1 [CBK285160]
// result 88.9%

// query Item: O=C(COc1ccc(I)cc1)Nc1cccnc1 [CBK263430]
// result 98.9%

// query Item: O=C(O)c1cccc(CSc2nnc(Cc3ccccc3)[nH]2)c1 [CBK268029]
// result 94.1%

// query Item: CCOC(=O)C1(C)C=C(Nc2cccc(C)c2)C(=O)N1c1ccccc1 (centres unmarked) [CBK263757]
// result 96.8%

---

Catalogue of viability at 28.5 h, 10 µM values
measurement description: in vitro
condition set: human, hela cells, % viability
Supply the numeric figure in %, leaving out any unit text.

>>> observed("COC(=O)c1ccc(N2CCN(Cc3nnnn3C3CC3)C(C)C2)cc1 (stereo not drawn) [CBK306129]")
89.6
>>> observed("C=CCN1C(=O)CC2(C1=O)C(=O)N(C)c1ccc(OC)cc12 (stereo not drawn) [CBK075158]")
101
>>> observed("COc1cncc(-c2cncc(N[C@H](CO)C(C)C)n2)c1 [CBK065329]")
106
>>> observed("O=C(/C=C/c1ccccc1)NC(NC(=S)Nc1cccc2cccnc12)C(Cl)(Cl)Cl (stereo not drawn) [CBK261046]")
101
>>> observed("CN1C(=O)CC(NCc2ccc(S(N)(=O)=O)cc2)C1=O (stereo not drawn) [CBK262352]")
87.4

// query # query: viability at 28.5 h, 10 µM of entry OC(CN1CCC(O)(c2ccccc2F)CC1)c1ccc(F)cc1 (stereo not drawn) [CBK282492]
// result 87.2

// query Item: CN(C)/C=N/c1nc2c(ccn2C2CC(O)C(CO)O2)c(=O)[nH]1 (stereo not drawn) [CBK201276]
// result 107

// query Item: O=C(CCn1c(=O)oc2cc(Cl)ccc21)NCc1ccco1 [CBK269857]
// result 95

// query Item: O=C(O)CC1(CC(=O)N2CCN(C(c3ccccc3)c3ccccc3)CC2)CCCC1 [CBK086174]
// result 98.7

---

Catalogue of viability at 28.5 h, 10 µM values
measurement description: in vitro
condition set: human, hela cells, % viability
Supply the numeric figure in %, leaving out any unit text.

// query # query: viability at 28.5 h, 10 µM of entry O=C(NCCn1nc(-c2cccs2)ccc1=O)C1CCCC1
// result 104

---

measurement description: in vitro
condition set: human, hela cells, % viability
Catalogue of viability at 28.5 h, 10 µM values
Supply the numeric figure in %, leaving out any unit text.

Please review the following examples before continuing.
>>> observed("COc1ccc(OC)c(NC(=O)CSc2nnc(-c3ccc(N)cc3)n2C)c1")
106
>>> observed("Cn1nnc2cc(NCC34CC3CN(C(=O)OC(C)(C)C)C4)ccc21 (centres unmarked)")
92.7
>>> observed("COc1ccc(CCC(C)NC2CCCc3c2[nH]c2ccc([N+](=O)[O-])cc32)cc1 (centres unmarked)")
71.6
>>> observed("O=C(CCn1c(=O)oc2ccccc21)Nc1ccc(S(=O)(=O)N2CCCCC2)cc1")
82
>>> observed("Fc1ccc(-n2cnnn2)cc1")
110

From here, focus on the item given below.
// query # query: viability at 28.5 h, 10 µM of entry CN(C)S(=O)(=O)Nc1ccc2[nH]ccc2c1
// result 92.2

---

Catalogue of viability at 28.5 h, 10 µM values
measurement description: in vitro
condition set: human, hela cells, % viability
Supply the numeric figure in %, leaving out any unit text.

>>> observed("CCOC(=O)C1(Cc2cc(-c3ccc(F)cc3)no2)CCNCC1")
109
>>> observed("C=CCn1oc(=O)n(-c2ccc(OC)cc2)c1=O")
89.4
>>> observed("CC1=C(CCN2CCCC(CO)C2)C(C)(C)CCC1 (centres unmarked)")
88.2
>>> observed("Cc1nc2c(c(=O)[nH]1)CCN(Cc1cn(C(C)C)c3ccccc13)C2")
105

From here, focus on the item given below.
// query # query: viability at 28.5 h, 10 µM of entry COc1ccc(C(=O)C=c2[nH]c(=O)c(=Cc3ccc(C(=O)O)cc3)s2)cc1
// result 99.6

---

measurement description: in vitro
condition set: human, hela cells, % viability
Catalogue of viability at 28.5 h, 10 µM values
Supply the numeric figure in %, leaving out any unit text.

>>> observed("CNc1cc(NS(=O)(=O)c2ccc(N)cc2)nc(NC)n1 [CBK011865C]")
96.1

// query # query: viability at 28.5 h, 10 µM of entry O=C1CCCN1CCOc1nccnc1-c1ccc(F)cc1 [CBK106895]
// result 98.7

// query Item: CN1CCN(c2ccnc3cc(Cl)ccc23)CC1 [CBK066867C]
// result 86

// query Item: O=S(=O)(Nc1nnn[nH]1)c1csc2ccccc12 [CBK062590]
// result 103

// query Item: Cc1ccc(N2C(=O)/C(=C/c3ccc(O)c(O)c3)SC2=S)cc1C [CBK262756]
// result 76.8

// query Item: CCn1c(C)cc2cc(NS(=O)(=O)c3ccc4[nH]c(=O)[nH]c(=O)c4c3)ccc21 [CBK286363]
// result 104

// query Item: Cc1nn(Cc2ccccn2)c(=O)n2cccc12 [CBK283849]
// result 95.1

// query Item: Cc1nn(C)cc1S(=O)(=O)Nc1ccc2c(ccn2C)c1 [CBK282806]
// result 77.4

// query Item: COc1ccc(NC(=O)Nc2nn(Cc3ccc(Cl)cc3Cl)cc2Br)cc1OC [CBK266930]
// result 101

// query Item: COc1ccccc1-c1cnc(N)c(N[C@@H](CO)C(C)C)n1 [CBK063749]
// result 101

// query Item: COc1ccc(S(=O)(=O)N2CCN(C(=O)c3cc(-c4cccnc4)nc4c(C)cc(C)cc34)CC2)cc1OC [CBK267767]
// result 99.4

// query Item: O=C(NC(N1CCCCC1)C(Cl)(Cl)Cl)c1ccc(Cl)cc1Cl (stereo not shown) [CBK261024]
// result 91.6

// query Item: O=[N+]([O-])c1ccccc1/C=C\C=N\n1c(S)nnc1-c1ccc(Cl)cc1Cl [CBK264405]
// result 95

// query Item: Cc1ccc(CN(CCCN2CCOCC2)Cc2ccoc2)o1 [CBK283234]
// result 81

// query Item: OCC1(CNc2ncc(F)c(N3CCCC3)n2)CCOCC1 [CBK306647]
// result 87.3

// query Item: CC(=O)Nc1ccc(S(=O)(=O)N2CC[C@H](c3nc4ccccc4o3)C2)cc1 [CBK289373]
// result 103

// query Item: CCN(CC)Cc1c(O)ccc2c(C#N)c(C)n(-c3ccccc3)c12 [CBK261527C]
// result 94.9

// query Item: CC1CN(c2ccccc2Br)NC1=O (stereo not shown) [CBK026500]
// result 96.7

// query Item: Cc1ccc(OCc2ccc(Cl)s2)c(Br)c1 [CBK002840]
// result 79

// query Item: Cc1nc2cc(OCc3nc(C(=O)NC4CCNC4=O)co3)ccc2s1 (stereo not shown) [CBK307298]
// result 91.8

// query Item: Cc1noc(C)c1CC(=O)N1[C@H]2CCCCCN(C)[C@@]2(C)C[C@H]1c1ccccc1 [CBK286094]
// result 85.8

// query Item: Cc1cc(C)cc(N(CC(=O)Nc2ccc(C)c(Cl)c2)S(=O)(=O)c2ccccc2)c1 [CBK264109]
// result 98.9

// query Item: NC(=O)C1(Cc2ccc(-c3ccccc3)cc2)CCN(C(=O)Cc2ccccc2)CC1 [CBK285771]
// result 115

// query Item: O=C(NC(=S)Nc1ccccc1C(=O)O)c1ccc(Cl)cc1 [CBK265044]
// result 96.2

// query Item: O=C(CN1CCCC1c1ccc(Nc2ccc(F)cn2)cn1)Nc1ccc(F)cc1 (stereo not shown) [CBK285941]
// result 106

// query Item: NC(=O)c1nc(-c2ccccc2)nc2c1[nH]c(=O)n2-c1cccc(Cl)c1 [CBK287544]
// result 104

// query Item: O=C(c1cncnc1)N1CCC(Cn2cncn2)(C2CCCCC2)CC1 [CBK136823]
// result 92.7
